Recorded values, source PubChem BioAssay (NCI).

Please go through the items and note down their GI50.
tested on: RXF 393 renal; test: NCI tumour cell line growth inhibition, 48 h

Examples with answers:
Cc1[nH]c(-c2nc3ccccc3[nH]2)c(C)c1C(=O)NC(C)C1CCCCC1 (centres undefined)
3.17 µM
CCC(=O)Nc1ccccc1C#C/C=C\C#Cc1ccccc1C(F)(F)F
2.84 µM
Cc1ccc(C2=C(c3ccc(C)cc3)C3(c4ccc(C)cc4)C4C(=O)c5ccccc5C(=O)C4C2(c2ccc(C)cc2)S3=O)cc1 (centres undefined)
94.4 µM

Note: attention shifts to another entry.
Sure, the documented GI50 for COc1cc(-c2n/c(=C\c3c(O)[nH]c4cc(Cl)ccc34)cc3c2=Nc2ccccc2-3)cc(OC)c1OC is 2.37 µM

###

tested on: NCI-H23 lung; assay: NCI tumour cell line growth inhibition, 48 h
Assignment: determine reported GI50 for the given compounds.

As a guide, the following entries are already answered.
Cc1cc(C(=O)O)c(C)n1-c1cccc(C(=O)O)c1
> 100 µM
CN(C)CC(C(=O)Cc1ccccc1)c1ccccc1 (stereo unspecified)
12.2 µM
COc1cc(-c2n/c(=C\c3c(O)[nH]c4cc(Cl)ccc34)cc3c2=Nc2ccccc2-3)cc(OC)c1OC
3.57 µM

Each compound below has a reported value. Please supply its GI50.
1. COc1ccc2c(Cl)cc(NC(=O)Nc3c(C)cccc3C)nc2c1
2. CCCNC(=O)c1ccc(Cl)cc1Cl
3. Cn1c2ccccc2c2c3[nH][nH]c(=O)c3c3c4ccccc4[nH]c3c21

Output line:
1. 76.9 µM
2. > 100 µM
3. 1.85 µM

###

test system: RPMI-8226 leukemia; assay: NCI tumour cell line growth inhibition, 48 h
READOUT: TGI

Hi, could you look up TGI for each item in my list?
1. CN(C)S(=O)(=O)n1cnc(CO)c1
2. NC(=O)N/N=C(/Cc1nc2ccc(C(=O)c3ccccc3)cc2[nH]c1=O)C(=O)Nc1ccc(C(F)(F)F)cc1[N+](=O)[O-]

Output line:
> 100 µM
> 100 µM

###

Assign TGI to each entry below.
test system: MDA-MB-435; experiment: NCI tumour cell line growth inhibition, 48 h
Where a SMILES comes first, the peptide text is derived from it. Residues, ends and D or L forms follow the SMILES beside them. [ ]: non-standard residue; d: D form. The star is where a group is joined. ξ: configuration not given here. *: point of attachment. ξF = NC(Cc1ccccc1)C(=O)O; Cbz = O=C(OCc1ccccc1)*; Boc = CC(C)(C)OC(=O)*; Aib = CC(C)(N)C(=O)O; OBn = c1ccc(CO*)cc1

CCc1cc2ncc(CN3CCN(c4ccc(C(=O)NC)nc4)CC3)cc2[nH]c1=O
> 100 µM
CC(C)CC(NC(=O)OC(C)(C)C)C(=O)N1CCCC1C(=O)OCc1ccccc1 (stereo not drawn) (Boc-Leu-Pro-OBn; configuration not given here)
> 100 µM
COC1=CC(=O)c2c(c(COP(=O)(N(C)CCBr)N(C)CCBr)cn2C)C1=O
0.222 µM
O=C(O)C1(Cc2ccc3c(c2)CCC3)Cc2ccccc2C1
> 100 µM

I have 5 molecules here; please give me TGI for each one.
1. Cc1c(N/C=C(\C#N)C(=O)c2ccc(Cl)cc2)c(=O)n(-c2ccccc2)n1C
2. COC(=O)C(C)(C)NC(=O)C(Cc1ccccc1)NC(=O)C(C)(C)NC(=O)OCc1ccccc1 (centres undefined) (Cbz-[Aib]-[ξF]-[Aib]-OMe)
3. CCC(=O)Nc1ccccc1C#C/C=C\C#Cc1ccccc1C(F)(F)F
4. COc1cc(N2CCN(C(C)C)CC2)ccc1Nc1nc(Nc2cccc(F)c2C(=O)O)c2cc[nH]c2n1
5. Cc1cc2nc3cc(C)c(N)cc3[n+](-c3ccccc3)c2cc1N

Output line:
> 100 µM
> 100 µM
1.84 µM
> 25 µM
67 µM
